The molecules listed here are annotated with their AC50.
target: Mu-type opioid receptor (Homo sapiens); further: assay procedure not described here
Sequence (P35372 whole entry): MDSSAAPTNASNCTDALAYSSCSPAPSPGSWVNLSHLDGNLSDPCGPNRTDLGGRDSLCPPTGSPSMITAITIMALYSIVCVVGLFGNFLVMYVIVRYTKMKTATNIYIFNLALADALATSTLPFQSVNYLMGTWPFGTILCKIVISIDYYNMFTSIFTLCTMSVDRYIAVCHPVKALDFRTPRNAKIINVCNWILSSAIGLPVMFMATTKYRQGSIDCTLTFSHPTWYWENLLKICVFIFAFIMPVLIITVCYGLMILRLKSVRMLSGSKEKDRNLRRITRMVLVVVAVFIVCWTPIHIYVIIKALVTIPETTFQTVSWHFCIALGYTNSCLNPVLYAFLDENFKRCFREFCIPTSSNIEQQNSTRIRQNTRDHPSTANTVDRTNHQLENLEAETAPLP

{"columns": ["MOLECULE", "EXPERIMENTAL_TARGET", "AC50"],
 "data": [
  ["CN(C)CCC=C1c2ccccc2C=Cc2ccccc21 [CYCLOBENZAPRINE]", "Mu-type opioid receptor (Homo sapiens)", "> 10 µM"],
  ["COc1ccc(CC(C)(C)NC[C@H](O)c2cc(O)cc3c2OCC(=O)N3)cc1 [OLODATEROL]", "Mu-type opioid receptor (Homo sapiens)", "> 30 µM"],
  ["O=C(NCCN1CCOCC1)c1ccc(Cl)cc1 [MOCLOBEMIDE]", "Mu-type opioid receptor (Homo sapiens)", "> 30 µM"],
  ["C=CCC1(CC(C)C)C(=O)NC(=O)NC1=O [BUTALBITAL]", "Mu-type opioid receptor (Homo sapiens)", "> 30 µM"],
  ["Cc1cccc(C(C)c2cnc[nH]2)c1C (stereo not given) [MEDETOMIDINE]", "Mu-type opioid receptor (Homo sapiens)", "> 30 µM"],
  ["CNC1Cc2ccccc2N(C)c2ccccc21 (stereo not given) [METAPRAMINE]", "Mu-type opioid receptor (Homo sapiens)", "> 30 µM"],
  ["NCC(CC(=O)O)c1ccc(Cl)cc1 (stereo not given) [BACLOFEN]", "Mu-type opioid receptor (Homo sapiens)", "> 30 µM"],
  ["CN1C(=O)CCS(=O)(=O)C1c1ccc(Cl)cc1 (stereo not given) [CHLORMEZANONE]", "Mu-type opioid receptor (Homo sapiens)", "> 30 µM"],
  ["CO[C@H]1C[C@@H]2CC[C@@H](C)[C@@](O)(O2)C(=O)C(=O)N2CCCC[C@H]2C(=O)O[C@H]([C@H](C)C[C@@H]2CC[C@@H](O)[C@H](OC)C2)CC(=O)[C@H](C)/C=C(\\C)[C@@H](O)[C@@H](OC)C(=O)[C@H](C)C[C@H](C)/C=C/C=C/C=C/1C [SIROLIMUS]", "Mu-type opioid receptor (Homo sapiens)", "> 10 µM"],
  ["C/C(O)=C(\\C#N)C(=O)Nc1ccc(C(F)(F)F)cc1 [TERIFLUNOMIDE]", "Mu-type opioid receptor (Homo sapiens)", "> 30 µM"],
  ["C[C@H]1COc2c(C3(N)CC3)c(F)cc3c(=O)c(C(=O)O)cn1c23 [PAZUFLOXACIN]", "Mu-type opioid receptor (Homo sapiens)", "> 30 µM"],
  ["NCC(=O)CCC(=O)O [AMINOLEVULINIC ACID]", "Mu-type opioid receptor (Homo sapiens)", "> 30 µM"],
  ["Cc1cccc(Nc2ccccc2C(=O)O)c1C [MEFENAMIC ACID]", "Mu-type opioid receptor (Homo sapiens)", "> 30 µM"],
  ["C#C[C@]1(O)CC[C@H]2[C@@H]3CCc4cc(OC5CCCC5)ccc4[C@H]3CC[C@@]21C [QUINESTROL]", "Mu-type opioid receptor (Homo sapiens)", "> 30 µM"],
  ["O=C(O)[C@H](CC(=O)N1C[C@H]2CCCC[C@H]2C1)Cc1ccccc1 [MITIGLINIDE]", "Mu-type opioid receptor (Homo sapiens)", "> 30 µM"],
  ["COc1cc2nc(N3CCN(C(=O)c4ccco4)CC3)nc(N)c2cc1OC [PRAZOSIN]", "Mu-type opioid receptor (Homo sapiens)", "4.1 µM"],
  ["CCCCc1ncc(/C=C(\\Cc2cccs2)C(=O)O)n1Cc1ccc(C(=O)O)cc1 [EPROSARTAN]", "Mu-type opioid receptor (Homo sapiens)", "> 10 µM"],
  ["CO[C@@H]1[C@@H](O[C@@H]2O[C@H](C)[C@@H](O[C@H]3C[C@@](C)(O)[C@@H](OC(=O)CC(C)C)[C@H](C)O3)[C@H](N(C)C)[C@H]2O)[C@@H](CC=O)C[C@@H](C)[C@@H](O)/C=C/C=C/C[C@@H](C)OC(=O)C[C@H]1OC(C)=O [JOSAMYCIN]", "Mu-type opioid receptor (Homo sapiens)", "> 30 µM"],
  ["CCOc1ccccc1OCC1CNCCO1 (stereo not given) [VILOXAZINE]", "Mu-type opioid receptor (Homo sapiens)", "> 10 µM"],
  ["CC(C)C[C@H]1C(=O)N2CCC[C@H]2[C@]2(O)O[C@](NC(=O)[C@@H]3C=C4c5cccc6[nH]c(Br)c(c56)C[C@H]4N(C)C3)(C(C)C)C(=O)N12 [BROMOCRIPTINE]", "Mu-type opioid receptor (Homo sapiens)", "14 µM"],
  ["CC1(C)O[C@@H]2C[C@H]3[C@@H]4CCC5=CC(=O)C=C[C@]5(C)[C@H]4[C@@H](O)C[C@]3(C)[C@]2(C(=O)CO)O1 [DESONIDE]", "Mu-type opioid receptor (Homo sapiens)", "> 30 µM"],
  ["CC(C(=O)O)c1ccc(N2Cc3ccccc3C2=O)cc1 (stereo not given) [INDOPROFEN]", "Mu-type opioid receptor (Homo sapiens)", "> 30 µM"],
  ["O=C(O)CCCCCCCC(=O)O [AZELAIC ACID]", "Mu-type opioid receptor (Homo sapiens)", "> 30 µM"],
  ["CC/C(=C(\\c1ccccc1)c1ccc(OCCN(C)C)cc1)c1ccccc1 [TAMOXIFEN]", "Mu-type opioid receptor (Homo sapiens)", "> 30 µM"],
  ["CCCSc1ccc2nc(NC(=O)OC)[nH]c2c1 [ALBENDAZOLE]", "Mu-type opioid receptor (Homo sapiens)", "> 30 µM"],
  ["O=[N+]([O-])c1cn2c(n1)OC[C@@H](OCc1ccc(OC(F)(F)F)cc1)C2 [PRETOMANID]", "Mu-type opioid receptor (Homo sapiens)", "> 10 µM"],
  ["C[C@]12CC[C@H]3[C@@H](CCC4=CC(=O)CC[C@@]43C)[C@@H]1CC[C@@H]2O [TESTOSTERONE]", "Mu-type opioid receptor (Homo sapiens)", "> 30 µM"],
  ["C[C@]1(O)CC[C@H]2[C@@H]3CCC4=CC(=O)CC[C@]4(C)[C@@]3(F)[C@@H](O)C[C@@]21C [FLUOXYMESTERONE]", "Mu-type opioid receptor (Homo sapiens)", "> 30 µM"],
  ["CCCN1C[C@H](CSC)C[C@@H]2c3cccc4[nH]cc(c34)C[C@H]21 [PERGOLIDE]", "Mu-type opioid receptor (Homo sapiens)", "> 30 µM"],
  ["Cc1cn([C@H]2C=C[C@@H](CO)O2)c(=O)[nH]c1=O [STAVUDINE]", "Mu-type opioid receptor (Homo sapiens)", "> 30 µM"],
  ["O=C1Nc2ccc(Cl)cc2[C@@](C#CC2CC2)(C(F)(F)F)O1 [EFAVIRENZ]", "Mu-type opioid receptor (Homo sapiens)", "> 30 µM"],
  ["CC[C@H]1CN2CCc3cc(OC)c(OC)cc3[C@@H]2C[C@@H]1C[C@H]1NCCc2cc(OC)c(OC)cc21 [EMETINE]", "Mu-type opioid receptor (Homo sapiens)", "18 µM"],
  ["CC(C)(C)c1cc(C(C)(C)C)c(NC(=O)c2c[nH]c3ccccc3c2=O)cc1O [IVACAFTOR]", "Mu-type opioid receptor (Homo sapiens)", "> 30 µM"],
  ["CN1CCN(CC/C=C2/c3ccccc3Sc3ccc(S(=O)(=O)N(C)C)cc32)CC1 [THIOTHIXENE]", "Mu-type opioid receptor (Homo sapiens)", "> 10 µM"],
  ["C=CCN1C[C@H](C(=O)N(CCCN(C)C)C(=O)NCC)C[C@@H]2c3cccc4[nH]cc(c34)C[C@H]21 [CABERGOLINE]", "Mu-type opioid receptor (Homo sapiens)", "> 30 µM"]
]}

---

Target or system 5-hydroxytryptamine receptor 2C (Homo sapiens); recorded quantity AC50. Further: assay procedure not described here.
METRIC: AC50

{"columns": ["COMPOUND", "EXPERIMENTAL_TARGET", "METRIC", "TEST_VALUE"],
 "data": [
  ["OC(CNCC(O)C1CCc2cc(F)ccc2O1)C1CCc2cc(F)ccc2O1 (stereo not given)", "5-hydroxytryptamine receptor 2C (Homo sapiens)", "AC50", "20 µM"],
  ["Nc1ccn([C@H]2CC[C@@H](CO)O2)c(=O)n1", "5-hydroxytryptamine receptor 2C (Homo sapiens)", "AC50", "> 30 µM"],
  ["NS(=O)(=O)Cc1noc2ccccc12 [ZONISAMIDE]", "5-hydroxytryptamine receptor 2C (Homo sapiens)", "AC50", "> 30 µM"],
  ["O=C(NCCNCC(O)COc1ccc(O)cc1)N1CCOCC1 (stereo not given)", "5-hydroxytryptamine receptor 2C (Homo sapiens)", "AC50", "> 30 µM"],
  ["COc1ccccc1N1CCN(CCCNc2cc(=O)n(C)c(=O)n2C)CC1", "5-hydroxytryptamine receptor 2C (Homo sapiens)", "AC50", "> 30 µM"],
  ["C#C[C@]1(O)CC[C@H]2[C@@H]3[C@H](C)CC4=C(CCC(=O)C4)[C@H]3CC[C@@]21C", "5-hydroxytryptamine receptor 2C (Homo sapiens)", "AC50", "> 30 µM"],
  ["N#Cc1ccc([C@H]2CCc3cncn32)c(F)c1", "5-hydroxytryptamine receptor 2C (Homo sapiens)", "AC50", "> 10 µM"],
  ["Cn1c(=O)c2c(ncn2CC2OCCO2)n(C)c1=O", "5-hydroxytryptamine receptor 2C (Homo sapiens)", "AC50", "> 30 µM"],
  ["CC[C@@H](C(N)=O)N1CCCC1=O", "5-hydroxytryptamine receptor 2C (Homo sapiens)", "AC50", "> 30 µM"],
  ["O=C1C(O)=C([C@H]2CC[C@H](c3ccc(Cl)cc3)CC2)C(=O)c2ccccc21", "5-hydroxytryptamine receptor 2C (Homo sapiens)", "AC50", "> 30 µM"]
]}

Reference source for all entries: ChEMBL document CHEMBL5291721
